test system: Saccharomyces cerevisiae; experiment: protein stability index of tFT-peptide fusion (C-terminal peptide) (PSI (0-1 scale)); higher = more stable (slower turnover); settings: genetic background: wild type; temperature: 30 C
protein stability index vs 0.7: at or above is Criterion met, below is Criterion not met.

IN: In plain terms: is recorded protein stability index at least 0.7 for RLPRSFLFLNKK [YOR343C C-terminal 12 aa] ?
OUT: Criterion not met

IN: Same thing, different sequence: DNGRIIITGIPN [ECM5 C-terminal 12 aa]
OUT: Criterion not met

IN: Same thing, different sequence: KKKAINEKAEQN [SEC62 C-terminal 12 aa]
OUT: Criterion not met

IN: Same thing, different sequence: SGEAAEEAEDEE [RPS9B C-terminal 12 aa]
OUT: Criterion not met

IN: Same thing, different sequence: AVDYILRLFGFL [COQ2 C-terminal 12 aa]
OUT: Criterion not met

IN: Same thing, different sequence: KDSELNIKSSKL [STR3 C-terminal 12 aa]
OUT: Criterion met

IN: Same thing, different sequence: VPVILREYKGSA [GCD2 C-terminal 12 aa]
OUT: Criterion not met

IN: Same thing, different sequence: WYQIVVQMIYIC [PSY1 C-terminal 12 aa]
OUT: Criterion not met

IN: Same thing, different sequence: GLRYDMVHKLIS [SLH1 C-terminal 12 aa]
OUT: Criterion not met

IN: Same thing, different sequence: SLQVILEFVSQH [SXM1 C-terminal 12 aa]
OUT: Criterion not met

IN: Same thing, different sequence: SESLSDSDLEIL [RAD24 C-terminal 12 aa]
OUT: Criterion not met

IN: Same thing, different sequence: EVKVDKVVYEKE [VPS29 C-terminal 12 aa]
OUT: Criterion met

IN: Same thing, different sequence: LLAKQLLLLLLR [YER079C-A C-terminal 12 aa]
OUT: Criterion not met

IN: Same thing, different sequence: LLHYQSWHFSIY [YJL007C C-terminal 12 aa]
OUT: Criterion not met

IN: Same thing, different sequence: KKRRIHPTPVDL [CAC2 C-terminal 12 aa]
OUT: Criterion met

IN: Same thing, different sequence: FKMCETEMQPIK [YGR201C C-terminal 12 aa]
OUT: Criterion not met
